// data source = patent US20210155689A1

Biological target: T1, human LAG-3 on cells (HEK293-hLAG-3 stable cell line) (human, UniProt P18627 23-525)
T1 sequence: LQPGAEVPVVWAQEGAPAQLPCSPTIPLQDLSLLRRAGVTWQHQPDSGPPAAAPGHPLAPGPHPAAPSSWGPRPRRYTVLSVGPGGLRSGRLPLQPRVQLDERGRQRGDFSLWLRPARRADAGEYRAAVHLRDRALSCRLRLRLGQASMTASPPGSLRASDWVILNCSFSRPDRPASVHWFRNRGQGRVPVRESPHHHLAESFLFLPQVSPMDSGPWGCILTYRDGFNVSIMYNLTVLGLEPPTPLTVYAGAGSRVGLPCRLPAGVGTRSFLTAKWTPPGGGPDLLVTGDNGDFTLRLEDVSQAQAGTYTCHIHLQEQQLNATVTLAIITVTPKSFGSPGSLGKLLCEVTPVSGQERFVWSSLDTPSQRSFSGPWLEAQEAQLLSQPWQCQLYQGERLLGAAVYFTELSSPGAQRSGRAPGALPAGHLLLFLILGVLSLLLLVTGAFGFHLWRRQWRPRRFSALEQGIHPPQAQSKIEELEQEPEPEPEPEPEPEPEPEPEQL
Assay: cell-based or functional assay
measuredAttribute: IL-2 production, SEB-dependent PBMC stimulation test, 0.4 ug/ml, N = 2 (pg/mL)
Express it in pg/mL; write the number only.

May I ask what IL-2 production, SEB-dependent PBMC stimulation test, 0.4 ug/ml, N = 2 has been recorded for 105F1E10 mouse-human chimeric antibody (antibody, V domains shown, also called mAb009-105F1E10) VH: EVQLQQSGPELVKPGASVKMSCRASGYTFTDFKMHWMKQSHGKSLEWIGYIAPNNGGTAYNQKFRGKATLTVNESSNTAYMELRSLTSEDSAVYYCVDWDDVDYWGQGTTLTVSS VL: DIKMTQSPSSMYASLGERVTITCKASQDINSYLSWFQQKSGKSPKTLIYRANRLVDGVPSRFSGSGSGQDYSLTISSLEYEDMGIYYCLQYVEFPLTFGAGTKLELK ? 2570

Recorded IL-2 production, SEB-dependent PBMC stimulation test, 0.4 ug/ml, N = 2 of 409D4E10 mouse-human chimeric antibody (antibody, V domains shown, also called mAb112-409D4E10) VH: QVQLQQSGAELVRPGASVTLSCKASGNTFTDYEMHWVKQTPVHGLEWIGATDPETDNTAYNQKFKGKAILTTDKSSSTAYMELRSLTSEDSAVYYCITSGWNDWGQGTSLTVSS VL: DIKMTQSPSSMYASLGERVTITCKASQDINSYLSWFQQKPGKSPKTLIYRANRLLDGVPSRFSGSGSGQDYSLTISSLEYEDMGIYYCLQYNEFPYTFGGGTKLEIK , please. 2160

Given the entry 409B11E12 mouse-human chimeric antibody (antibody, V domains shown, also called mAb104-409B11E12) VH: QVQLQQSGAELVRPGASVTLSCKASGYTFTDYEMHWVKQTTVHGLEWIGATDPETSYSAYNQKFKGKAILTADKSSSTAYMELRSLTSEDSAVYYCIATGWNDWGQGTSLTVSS VL: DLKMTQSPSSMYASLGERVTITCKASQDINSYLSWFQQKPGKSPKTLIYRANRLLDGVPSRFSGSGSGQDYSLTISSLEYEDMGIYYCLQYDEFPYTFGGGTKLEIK , report its measured IL-2 production, SEB-dependent PBMC stimulation test, 0.4 ug/ml, N = 2. 1990

Value lookup for IL-2 production, SEB-dependent PBMC stimulation test, 0.4 ug/ml, N = 2; key = 556F6B8 mouse-human chimeric antibody (antibody, V domains shown, also called mAb123-556F6B8; 556F8B8) VH: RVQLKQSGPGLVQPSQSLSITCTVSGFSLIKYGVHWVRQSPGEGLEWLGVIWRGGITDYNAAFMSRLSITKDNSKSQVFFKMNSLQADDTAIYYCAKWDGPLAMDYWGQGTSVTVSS VL: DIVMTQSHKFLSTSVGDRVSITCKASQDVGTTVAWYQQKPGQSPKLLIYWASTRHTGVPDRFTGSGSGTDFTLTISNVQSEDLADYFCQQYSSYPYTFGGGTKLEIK 2810

I'd like to know its IL-2 production, SEB-dependent PBMC stimulation test, 0.4 ug/ml, N = 2. The binder in question is 405B8H3 mouse-human chimeric antibody (antibody, V domains shown, also called mAb103-405B8H3) VH: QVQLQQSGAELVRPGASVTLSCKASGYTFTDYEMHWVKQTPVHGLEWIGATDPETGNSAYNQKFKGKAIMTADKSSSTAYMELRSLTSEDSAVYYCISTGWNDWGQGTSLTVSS VL: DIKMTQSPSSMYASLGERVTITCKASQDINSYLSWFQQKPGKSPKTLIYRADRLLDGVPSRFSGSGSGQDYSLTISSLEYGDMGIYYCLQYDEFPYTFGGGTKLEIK 3240
